All figures here come from patent US4638070A.

experiment: Acute toxicity, oral, LD50 (Litchfield and Wilcoxon)
measurement_conditions: mouse, in vivo, fasted male mice, confidence limits p=95% in brackets
Each entry below carries its recorded LD50.
Respond with the bare value in mg/kg.

{"compound": "CC(NCCCCc1ccccc1)C(O)c1ccc2c(c1)CCS2 (centres unmarked) [No 7]", "LD50 / mg/kg": 860}
{"compound": "CC(NCCCCc1ccccc1)C(O)c1ccc2c(c1)SCCO2 (centres unmarked) [No 122]", "LD50 / mg/kg": 1650}
{"compound": "CC(C(O)c1ccc2c(c1)CCC2)N1CCC(Cc2ccccc2)CC1 (centres unmarked) [No 172]", "LD50 / mg/kg": 1900}
{"compound": "CCCCOCCOCCCNC(C)C(O)c1ccc2c(c1)CCCS2 (centres unmarked) [No 72]", "LD50 / mg/kg": 880}
{"compound": "CCCCSCCCNC(C)C(O)c1ccc2c(c1)CCS2 (centres unmarked) [No 125]", "LD50 / mg/kg": 3400}
{"compound": "CCCCCCCCNC(C)C(O)c1ccc2c(c1)CC(C)S2 (centres unmarked) [No 18]", "LD50 / mg/kg": 3350}
{"compound": "CC1Cc2cc(C(O)C(C)NCCCCc3ccccc3)ccc2S1 (centres unmarked) [No 19]", "LD50 / mg/kg": 1550}
{"compound": "CC(C)NC(C)C(O)c1ccc2c(c1)CCS2 (centres unmarked) [No 33]", "LD50 / mg/kg": 355}
{"compound": "CC(NCCCCc1ccc(Cl)cc1)C(O)c1ccc2c(c1)CCS2 (centres unmarked) [No 29]", "LD50 / mg/kg": 1750}
{"compound": "CCC(=O)OC(c1ccc2c(c1)CCS2)C(C)NCCCCc1ccccc1 (centres unmarked) [No 118]", "LD50 / mg/kg": 2020}

Briefly, LD50 measured for CC(C)C(=O)OC(c1ccc2c(c1)CCS2)C(C)NCCCCc1ccccc1 (centres unmarked) [No 117] : 2200

LD50 measured on CC1Cc2cc(C(O)C(C)NCCOc3ccc(Cl)cc3)ccc2O1 (centres unmarked) [No 84] = 1200

LD50 recorded for this compound, CC(NC1CCCCCCC1)C(O)c1ccc2c(c1)CCS2 (centres unmarked) [No 28] , is 580

Reported LD50 of CCCCOCCCNC(C)C(O)c1ccc2c(c1)CCCS2 (centres unmarked) [No 50] : 900

----------
System: guinea-pig ileum (barium chloride contractions)
experiment: Antispasmodic activity in vitro, contractions caused by barium chloride
measurement_conditions: added 15 minutes before spasm-producing agent
The entries below come with measured ANTISPASMODIC ACTIVITY BaCl2 (dose causing complete spasm inhibition) values attached.
Report as a plain number; the unit μg per ml is understood.

Measured ANTISPASMODIC ACTIVITY BaCl2 (dose causing complete spasm inhibition) of CC(NCCc1ccccc1)C(O)c1ccc2c(c1)CCCS2 (centres unmarked) : 3.3

Reported ANTISPASMODIC ACTIVITY BaCl2 (dose causing complete spasm inhibition) ( CC(NCC(c1ccccc1)c1ccccc1)C(O)c1ccc2c(c1)CCCS2 (centres unmarked) ) = 1.7

----------
experiment: Acute toxicity, oral, LD50 (Litchfield and Wilcoxon)
measurement_conditions: mouse, in vivo, fasted male mice, confidence limits p=95% in brackets
measurement_label: LD50

The following compounds have reported results that may help.
{"compound": "CCCCCCCCCCCCCCNC(C)C(O)c1ccc2c(c1)CCCS2 (centres unmarked)", "measurement_label": "LD50", "meas_value": "> 4000 mg/kg"}
{"compound": "CC1Cc2cc(C(O)C(C)NCCCCc3ccc(Cl)cc3)ccc2O1 (centres unmarked)", "measurement_label": "LD50", "meas_value": "160 mg/kg"}
{"compound": "CCCC(=O)OC(c1ccc2c(c1)CCS2)C(C)NCCCCc1ccccc1 (centres unmarked)", "measurement_label": "LD50", "meas_value": "3700 mg/kg"}
{"compound": "CCCCCCCCNC(C)C(O)c1ccc2c(c1)CCC2 (centres unmarked)", "measurement_label": "LD50", "meas_value": "1750 mg/kg"}

Let us move to another entry and its LD50.
// LD50 lookup, compound = CCC(=O)c1ccc(OCCNC(C)C(O)c2ccc3c(c2)CC(C)S3)cc1 (centres unmarked) , result: > 4000 mg/kg
